Test system: Blood
Assay: Antiinflammatory activity in Sprague-Dawley rat whole blood assessed as inhibition of LPS-induced TNFalpha production measured after 18 hrs by AlphaLisa assay
Assay type: functional, tissue-based
Attribute measured: IC50 (nM)

In [3]: df
Out[3]:
                                 smiles_str  attribute_measured  assay_value
0  C[C@]12C=CC(=O)C=C1CC[C@@H]1[C@@H]2[C@@H](O)C[C@@]2(C)[C@H]1CC[C@]2(O)C(=O)CO                IC50          4.6
1  O[C@@]1(c2ccccc2)CCCC[C@@]12C=Cc1c(cnn1-c1ccc(F)cc1)C2                IC50            4

###

Test system: Glucocorticoid receptor (Homo sapiens, UniProt P04150)
Sequence (P04150 whole entry): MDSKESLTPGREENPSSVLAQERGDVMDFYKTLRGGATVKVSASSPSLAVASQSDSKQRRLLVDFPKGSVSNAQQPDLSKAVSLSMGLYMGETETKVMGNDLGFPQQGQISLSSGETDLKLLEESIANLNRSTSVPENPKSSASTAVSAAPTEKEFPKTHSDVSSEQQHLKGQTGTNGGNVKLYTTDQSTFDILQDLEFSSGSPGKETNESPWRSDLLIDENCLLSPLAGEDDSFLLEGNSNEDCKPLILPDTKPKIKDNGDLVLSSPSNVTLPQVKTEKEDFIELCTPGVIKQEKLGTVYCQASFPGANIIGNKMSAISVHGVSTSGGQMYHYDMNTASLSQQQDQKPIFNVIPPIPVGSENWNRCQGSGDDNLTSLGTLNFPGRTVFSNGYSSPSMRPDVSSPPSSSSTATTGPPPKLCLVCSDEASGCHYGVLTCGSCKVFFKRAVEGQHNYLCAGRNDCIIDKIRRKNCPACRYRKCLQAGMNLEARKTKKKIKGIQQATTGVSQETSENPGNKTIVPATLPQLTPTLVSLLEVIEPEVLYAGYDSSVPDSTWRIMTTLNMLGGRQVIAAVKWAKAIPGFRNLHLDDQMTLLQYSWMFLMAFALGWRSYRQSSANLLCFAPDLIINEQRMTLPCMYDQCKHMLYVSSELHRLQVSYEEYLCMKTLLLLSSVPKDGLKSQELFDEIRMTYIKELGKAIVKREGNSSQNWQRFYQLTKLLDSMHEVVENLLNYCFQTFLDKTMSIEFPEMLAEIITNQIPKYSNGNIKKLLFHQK
Assay: Displacement of [3H]dexamethasone from GR in human IM9 cells after 6 hrs by scintillation counting method
Assay type: cell-based
Attribute measured: IC50 (nM)

Example results:
>>> df
                                 smiles_str                               test_system  assay_value
0  COc1ccc(C2=CCCC[C@]23C=Cc2c(cnn2-c2ccc(F)cc2)C3)cc1  Glucocorticoid receptor (Homo sapiens, UniProt P04150)          135
1  O[C@@]1(c2ccccc2)CCCCC[C@@]12C=Cc1c(cnn1-c1ccc(F)cc1)C2  Glucocorticoid receptor (Homo sapiens, UniProt P04150)            6
2  Oc1ccc(C2=CCCC[C@]23C=Cc2c(cnn2-c2ccc(F)cc2)C3)cc1  Glucocorticoid receptor (Homo sapiens, UniProt P04150)           10

A. O[C@@]1(Cc2ccccc2)CCCCC[C@@]12C=Cc1c(cnn1-c1ccc(F)cc1)C2
B. O[C@]1(c2ccccc2)CCCC[C@@]12C=Cc1c(cnn1-c1ccc(F)cc1)C2
INPUT: Thinking about recorded IC50 values, which is higher, A or B ? Pick one and reply with its label.
OUTPUT: B
